- ASSAY_COMMENT: modulators of S6 phosphorylation in cells, primary screen, cell-based, A549, cytoblot, luminescence, serum-stimulated (AID 1158);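 further: serum-stimulated A549 lung adenocarcinoma cells; signal is phosphorylated S6 detected by cytoblot immunostaining with HRP secondary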
- RUN_PARAMETERS: A549 phospho-S6 cytoblot, 5 h, higher = more signal
MEASURED_METRIC: z-score
Write no unit; give the number alone.

Field: example entries. Status: answers known.
CCOC(=O)C1=CCC(c2cc3ccccc3[nH]2)N(S(=O)(=O)c2ccccc2[N+](=O)[O-])C1 (centres undefined) | -0.146
Cc1ccc(S(=O)(=O)N2[C@@H](c3ccccc3)C(C(=O)O)=CC[C@H]2c2ccc(C#N)cc2)cc1 | -0.316
[N-]=[N+]=NCc1ccccc1C[C@@]1(C(=O)O)N=C(c2ccc(OCCCO)cc2)O[C@@H]1c1ccccc1CN=[N+]=[N-] | 1.03

The compound identified as C=CCN1C(=O)[C@]2(O[C@H](CCn3cc([C@H](O)c4ccccc4)nn3)[C@@H]([Si](C)(C)c3ccc(OC)cc3)[C@@H]2C)c2cc(N3C(=O)c4cccc5cccc3c45)ccc21 registered its z-score at 0.435
